Origin of values: ChEMBL document CHEMBL1127698

// IC50 lookup, one value per entry
- SYSTEM: Interstitial collagenase (Homo sapiens, UniProt P03956)
- Sequence (P03956 whole entry): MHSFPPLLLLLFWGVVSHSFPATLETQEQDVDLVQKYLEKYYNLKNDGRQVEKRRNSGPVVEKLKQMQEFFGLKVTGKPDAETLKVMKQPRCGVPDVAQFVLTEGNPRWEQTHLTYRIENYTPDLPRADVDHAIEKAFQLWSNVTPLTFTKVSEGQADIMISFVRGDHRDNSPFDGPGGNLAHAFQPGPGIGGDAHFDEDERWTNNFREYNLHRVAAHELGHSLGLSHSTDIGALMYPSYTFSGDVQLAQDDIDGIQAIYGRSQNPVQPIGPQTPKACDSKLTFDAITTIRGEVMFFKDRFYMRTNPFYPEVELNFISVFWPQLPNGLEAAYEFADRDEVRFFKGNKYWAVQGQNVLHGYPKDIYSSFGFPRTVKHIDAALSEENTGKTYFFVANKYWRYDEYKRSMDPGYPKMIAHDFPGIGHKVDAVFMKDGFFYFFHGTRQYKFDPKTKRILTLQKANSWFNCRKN
Dear colleague, please return just the value in nM, with no unit written.

Here are 3 compounds together with their reported answers.
- SMILES_REPRESENTATION: "CNC(=O)[C@H](Cc1ccc(O)cc1)NC(=O)[C@H](CC(C)C)N[C@H](CCN1C(=O)c2cc3ccccc3cc2C1=O)C(=O)O"
  UNIT_LABEL: "nM"
  IC50: 29
- SMILES_REPRESENTATION: "CC(C)C[C@H](N[C@H](CCN1C(=O)c2cc3ccccc3cc2C1=O)C(=O)O)C(=O)NCc1cccnc1"
  UNIT_LABEL: "nM"
  IC50: 139
- SMILES_REPRESENTATION: "CC(C)C[C@H](N[C@H](CCN1C(=O)c2cc3ccccc3cc2C1=O)C(=O)O)C(=O)N(C)C"
  UNIT_LABEL: "nM"
  IC50: 86

Okay, next one:
Ask: Answer with the recorded IC50 for the compound listed here: `CC(C)C[C@H](NC(=O)[C@H](CC(C)C)N[C@H](CCN1C(=O)c2cc3ccccc3cc2C1=O)C(=O)O)C(=O)NCCN1CCOCC1`
Reply: 44
